Value source: patent US12344649B2

Measured EC50, listed per entry.
- experimentalTarget: PTHR1 (Homo sapiens, UniProt Q03431)
- protocolSummary: β-arrestin1 recruitment BRET assay in transfected HEK293T cells
- Format: cell-based
- Design: Flag (N); Life Technologies Corporation, CA (arrestin cDNA); host or cells: HEK293T (CRL-3216, ATCC)
- experimentalParameters: β-arrestin1 recruitment; replicate plates; read-out: −log10EC50 (converted)
Where no end group is shown, it is not given here.
assayMetric: EC50 (nM)

>>> testresult("GIAVITLMDLRAYLRAEYELREMLLRLLEEIF [Peptide R2-13]")
1.61
>>> testresult("GVAMLQIMHDLAKIKQELELKDSMKKILEDVL [Peptide R2-50]")
1200
>>> testresult("AVAEIQLMHQRAKWELLEELLKILLELLKEYI [Peptide R2-38]")
0.0179
>>> testresult("AVAEIQLMHQRAKWEIQEIGIKITLDLLQTLK [Peptide R2-41]")
3.83
>>> testresult("LMHNLGKHLNSMERVEWLRKKLQDVHNFVA [PTH 7-36 antago, reference compound]")
105
>>> testresult("GIAVITLMLLRAYLELLEELVKILHELLRRYH [Peptide R2-52]")
0.149
>>> testresult("SVMMIQVMHDLAKIRAEYELREMLLRLLEEIF [Peptide R2-8]")
3.7
>>> testresult("AVAEIQLMHQRAKWKILEELLKILIDLLKQYI [Peptide R2-48]")
1890
>>> testresult("GIAVITLMVLRALLELQEIGRKITLELLKEYI [Peptide R2-51]")
29400

----------
- experimentalTarget: PTHR1 (Homo sapiens)
- Sequence (Q03431 27-593): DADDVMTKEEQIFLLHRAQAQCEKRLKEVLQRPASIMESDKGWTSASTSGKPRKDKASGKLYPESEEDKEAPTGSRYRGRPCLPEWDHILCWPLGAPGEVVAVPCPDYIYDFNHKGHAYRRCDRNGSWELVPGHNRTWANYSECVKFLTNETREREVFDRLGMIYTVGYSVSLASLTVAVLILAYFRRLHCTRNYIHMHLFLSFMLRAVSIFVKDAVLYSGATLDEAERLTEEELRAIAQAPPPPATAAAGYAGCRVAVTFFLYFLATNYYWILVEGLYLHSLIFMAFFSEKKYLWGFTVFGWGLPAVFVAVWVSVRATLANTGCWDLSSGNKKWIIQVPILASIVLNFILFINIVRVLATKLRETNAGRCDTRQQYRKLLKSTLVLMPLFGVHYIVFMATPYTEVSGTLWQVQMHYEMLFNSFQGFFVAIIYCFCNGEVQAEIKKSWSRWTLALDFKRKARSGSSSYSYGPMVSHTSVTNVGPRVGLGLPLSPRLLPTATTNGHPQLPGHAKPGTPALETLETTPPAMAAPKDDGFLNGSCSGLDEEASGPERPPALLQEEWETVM
- protocolSummary: β-arrestin1 recruitment BRET assay in transfected HEK293T cells
- Format: cell-based
- Design: Flag (N); Life Technologies Corporation, CA (arrestin cDNA); host or cells: HEK293T (CRL-3216, ATCC)
- experimentalParameters: β-arrestin1 recruitment, fitted curve slope; replicate plates
Where no end group is shown, it is not given here.
assayMetric: −log10Slope

>>> testresult("AVAEIQLMHQRAKWEIQEIGIKITLDLLQTLK [Peptide R2-41]")
"−8.214"
>>> testresult("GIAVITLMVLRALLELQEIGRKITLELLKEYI [Peptide R2-51]")
"−1.524"
>>> testresult("GIAVITLMLLRAYLELLEELVKILHELLRRYH [Peptide R2-52]")
2.312
>>> testresult("AVAEIQLMHQRAKWGLDLELAVKLQEILKDVL [Peptide R2-28]")
"−1.455"
>>> testresult("SVMMIQVMHDLAKIRAEYELREMLLRLLEEIF [Peptide R2-8]")
"−2.339"
>>> testresult("GVAELQLMHDLAKIRAEYELREMLLRLLEEIF [Peptide R2-1]")
"−0.1441"
>>> testresult("LMHNLGKHLNSMERVEWLRKKLQDVHNFVA [PTH 7-36 antago, reference compound]")
"−1.192"
>>> testresult("AVAEIQLMHQRAKWELLEELLKILLELLKEYI [Peptide R2-38]")
"−5.307"
>>> testresult("GIAVITLMDLRAYLRAEYELREMLLRLLEEIF [Peptide R2-13]")
"−3.163"

----------
Catalogue of log10(EC50) values
- experimentalTarget: PTHR1 (Homo sapiens, UniProt Q03431)
- protocolSummary: cAMP accumulation assay (HTRF) in CHO-K1/Ga15/PTHR1 cells
- Type: cell-based
- Parameters: host or cells: CHO-K1 (recombinant line CHO-K1/Ga15/PTHR1)
- experimentalParameters: cAMP accumulation; replicate plates; read-out: −log10EC50 (converted)
Where no end group is shown, it is not given here.
assayMetric: log10(EC50) (log10 of the value in µM)

>>> testresult("AVAEIQLMHQRAKWSLREELEKLLKELLKEYI [Peptide R2-44]")
-4.44
>>> testresult("GVAELQLMHDLAKIRAEYELREMLLRLLEEIF [Peptide R2-1]")
-1.02
>>> testresult("AVAEIQLMHQRAKWGLDLELAVKLQEILKDVL [Peptide R2-28]")
-1.03
>>> testresult("AVAEIQLMHQRAKWKQELELEEKNKKILEDVY [Peptide R2-32]")
-0.51
>>> testresult("GVYAIQAMHDLAKIRAEYELREMLLRLLEEIF [Peptide R2-10]")
1.51
>>> testresult("AVAEIQLMHQRAKWIQDARRRAFLHKLIAEIH [LA-PM-FL, reference compound]")
-1.88
>>> testresult("LILVKKIIDLRAYLRAEYELREMLLRLLEEIF [Peptide R2-21]")
1.33
>>> testresult("AVAEIQLMHQRAKWLNELRLKEEMRKILEDVY [Peptide R2-33]")
-1.10
>>> testresult("GIAVITLMDLRAYLRAEYELREMLLRLLEEIF [Peptide R2-13]")
0.69
>>> testresult("AVAEIQLMHQRAKWELLEELLKILLELLKEYI [Peptide R2-38]")
-0.91
>>> testresult("SIIGEQLMLLRALLRAEYELREMLLRLLEEIF [Peptide R2-18]")
3.77
>>> testresult("AVAEIQLMHQRAKWGVELQLKVDLRRILEDVY [Peptide R2-35]")
-2.01

----------
- experimentalTarget: PTHR1 (Homo sapiens)
- Sequence (Q03431 27-593): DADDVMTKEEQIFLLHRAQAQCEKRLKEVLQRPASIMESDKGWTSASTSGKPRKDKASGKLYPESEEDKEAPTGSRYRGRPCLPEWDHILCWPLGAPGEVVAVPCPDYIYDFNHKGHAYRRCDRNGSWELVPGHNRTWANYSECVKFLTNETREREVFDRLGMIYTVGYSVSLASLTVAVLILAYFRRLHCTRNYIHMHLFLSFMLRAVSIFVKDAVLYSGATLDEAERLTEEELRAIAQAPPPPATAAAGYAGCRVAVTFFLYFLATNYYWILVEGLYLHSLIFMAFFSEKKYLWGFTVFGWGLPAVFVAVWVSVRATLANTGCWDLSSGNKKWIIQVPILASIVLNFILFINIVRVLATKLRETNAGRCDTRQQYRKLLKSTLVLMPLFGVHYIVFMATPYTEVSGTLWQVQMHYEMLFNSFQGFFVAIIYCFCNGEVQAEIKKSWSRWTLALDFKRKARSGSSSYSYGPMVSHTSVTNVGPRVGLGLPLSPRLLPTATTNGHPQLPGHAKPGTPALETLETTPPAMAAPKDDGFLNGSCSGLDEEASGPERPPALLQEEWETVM
- protocolSummary: β-arrestin1 recruitment BRET assay in transfected HEK293T cells
- Type: cell-based
- Parameters: Flag (N); Life Technologies Corporation, CA (arrestin cDNA); host or cells: HEK293T (CRL-3216, ATCC)
- experimentalParameters: relative to PTH [1-34]; HEK293T cells, BRET
Where no end group is shown, it is not given here.
assayMetric: β1-arrestin

>>> testresult("GIAVITLMDLRAYLRAEYELREMLLRLLEEIF [Peptide R2-13]")
"+"
>>> testresult("AVAEIQLMHQRAKWKLELELKAFLDQILKDVL [Peptide R2-36]")
"+"
>>> testresult("AVAEIQLMHQRAKWKLELELKEKIRKLLEDLL [Peptide R2-29]")
"+"
>>> testresult("AVAEIQLMHQRAKWIQDARRRAFLHKLIAEIH [LA-PM-FL, reference compound]")
"+"
>>> testresult("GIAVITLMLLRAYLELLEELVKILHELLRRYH [Peptide R2-52]")
"++"
>>> testresult("AVAEIQLMHQRAKWELLEELLKILLELLKEYI [Peptide R2-38]")
"++"

----------
- experimentalTarget: PTHR1 (Homo sapiens)
- Sequence (Q03431 27-593): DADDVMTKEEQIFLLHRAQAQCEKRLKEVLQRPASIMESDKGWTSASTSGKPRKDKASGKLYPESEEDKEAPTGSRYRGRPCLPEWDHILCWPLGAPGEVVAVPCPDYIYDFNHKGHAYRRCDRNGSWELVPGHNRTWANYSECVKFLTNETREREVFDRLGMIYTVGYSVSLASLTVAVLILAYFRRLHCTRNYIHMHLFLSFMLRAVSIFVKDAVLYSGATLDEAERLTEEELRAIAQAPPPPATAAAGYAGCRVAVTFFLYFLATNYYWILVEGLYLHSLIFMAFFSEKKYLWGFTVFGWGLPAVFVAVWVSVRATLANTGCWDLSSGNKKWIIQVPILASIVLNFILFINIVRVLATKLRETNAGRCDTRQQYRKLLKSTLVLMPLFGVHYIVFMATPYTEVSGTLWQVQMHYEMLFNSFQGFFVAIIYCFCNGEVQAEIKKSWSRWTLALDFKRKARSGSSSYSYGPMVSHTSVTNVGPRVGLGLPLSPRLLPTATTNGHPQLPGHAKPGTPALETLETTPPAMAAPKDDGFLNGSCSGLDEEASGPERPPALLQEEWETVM
- protocolSummary: β-arrestin2 recruitment BRET assay in transfected HEK293T cells
- Assay type: cell-based
- Set-up: Flag (N); Life Technologies Corporation, CA (arrestin cDNA); host or cells: HEK293T (CRL-3216, ATCC)
- experimentalParameters: relative to PTH [1-34]; HEK293T cells, BRET
Where no end group is shown, it is not given here.
assayMetric: β2-arrestin

>>> testresult("AVAEIQLMHQRAKWIQDARRRAFLHKLIAEIH [LA-PM-FL, reference compound]")
"++"
>>> testresult("AVAEIQLMHQRAKWLNELRLKEEMRKILEDVY [Peptide R2-33]")
"+"
>>> testresult("GVAELQLMHDLAKIRAEYELREMLLRLLEEIF [Peptide R2-1]")
"++"
